System: rodent lifetime carcinogenesis bioassay, tumor incidence TD50
Test: carcinogenic potency in animals, long-term in vivo studies, CPDB compilation (AID 1745844)
Details: mouse; strain B6C3F1; females; by gavage; site: liver; lesion: hepatocellular adenoma + hepatocellular carcinoma; dosed 104 weeks; study length 104 weeks
readoutName: TD50

molecule | result
COC1COC(OC2COC(OC3COC(OC4COC(OC)C(OS(=O)(=O)O)C4OS(=O)(=O)O)C(OC4OC(C(=O)O)C(OC)C(OS(=O)(=O)O)C4OS(=O)(=O)O)C3OS(=O)(=O)O)C(OS(=O)(=O)O)C2OS(=O)(=O)O)C(OS(=O)(=O)O)C1OS(=O)(=O)O (configuration not stated) | 867 mg/kg/day

Consider the additional molecule presented here.
INPUT: Request - read-out TD50 | tested on rodent lifetime carcinogenesis bioassay, tumor incidence TD50 | molecule `Clc1cc2c(cc1Cl)Oc1cc(Cl)c(Cl)cc1O2`
OUTPUT: 0.000756 mg/kg/day

====

System: rodent lifetime carcinogenesis bioassay, tumor incidence TD50
Assay: carcinogenic potency in animals, long-term in vivo studies, CPDB compilation (AID 1745844)
Conditions: rat; strain F344/DuCrj; males; in feed; site: skin; lesion: several types; types named in the paper; dosed 56 weeks; study length 56 weeks
readoutName: TD50

INPUT: Suppose we examine the compound `Cc1cnc2ccc3c(nc(N)n3C)c2n1` ; what TD50 value has been reported?
OUTPUT: 12 mg/kg/day

====

System: rodent lifetime carcinogenesis bioassay, tumor incidence TD50
Experiment: carcinogenic potency in animals, long-term in vivo studies, CPDB compilation (AID 1745844)
Settings: rat; strain Fischer 344; males; in drinking water; site: thyroid gland; lesion: c-cell adenoma + c-cell carcinoma, bilateral + c-cell carcinoma + c-cell adenoma, bilateral; dosed 97 weeks; study length 97 weeks
readoutName: TD50

INPUT: Which value of TD50 has been reported for `COc1cc(-c2ccc(N=Nc3c(S(=O)(=O)O)cc4cc(S(=O)(=O)O)cc(N)c4c3O)c(OC)c2)ccc1N=Nc1c(S(=O)(=O)O)cc2cc(S(=O)(=O)O)cc(N)c2c1O` in the records?
OUTPUT: 116 mg/kg/day

====

System: rodent lifetime carcinogenesis bioassay, tumor incidence TD50
Experiment: carcinogenic potency in animals, long-term in vivo studies, CPDB compilation (AID 1745844)
Details: rat; strain Fischer 344; females; by gavage; site: forestomach; lesion: squamous-cell carcinoma + squamous-cell papilloma; dosed 103 weeks; study length 104 weeks
readoutName: TD50

INPUT: Name the reported TD50 value associated with the compound c1cc(OCC2CO2)cc(OCC2CO2)c1 (stereo unspecified)
OUTPUT: 3.53 mg/kg/day

====

System: rodent lifetime carcinogenesis bioassay, tumor incidence TD50
Test: carcinogenic potency in animals, long-term in vivo studies, CPDB compilation (AID 1745844)
Conditions: mouse; strain C57BL; males; by gavage; site: forebrain; lesion: olfactory neuroepithelioma; dosed 50 weeks; study length 72 weeks
readoutName: TD50

INPUT: For `CN(C)N=O` , what is its reported TD50?
OUTPUT: 0.161 mg/kg/day

====

Test system: rodent lifetime carcinogenesis bioassay, tumor incidence TD50
Assay: carcinogenic potency in animals, long-term in vivo studies, CPDB compilation (AID 1745844)
Details: rat; strain Sprague-Dawley; females; in feed; site: uterus; lesion: adenomyoma; dosed 66 weeks; study length 75 weeks
The source made the active and inactive calls. No rule for the calls is given here.
readoutName: TD50

INPUT: Recorded TD50 for `Cc1ncc([N+](=O)[O-])n1CCO` , please?
OUTPUT: 180 mg/kg/day (inactive)
